Numbers sourced from ChEMBL document CHEMBL4513141.

What Inhibition was measured for each of the following?
Test system: Cryptococcus neoformans
Conditions: Concentration 20 uM; ASSAY_TEST Inhibition of Fungal Growth; detection method Resazurin; Absorption (OD600-OD570); plate type 384well; NBS; CORNING #3640
Potency and affinity values are given separately.
# unit: % | format: bare number

Prompt: Consider the molecule shown here: Cl.O=c1n(CCCN2CCN(c3cccc(Cl)c3)CC2)nc2ccccn12 [TRAZODONE HYDROCHLORIDE] What is its recorded Inhibition?
Completion: -5.73

Prompt: Consider the molecule shown here: "C#C[C@]1(O)CC[C@H]2[C@@H]3CCc4cc(O)ccc4[C@H]3CC[C@@]21C" What is its recorded Inhibition?
Completion: -5.67

Prompt: Consider the molecule shown here: CC12CCC(=O)C=C1CCC1C2CCC2(C)C1CCC2(O)C(=O)CO (centres undefined) What is its recorded Inhibition?
Completion: -0.13

Prompt: Consider the molecule shown here: "CN1CCc2cc(Cl)c(O)cc2[C@@H](c2ccccc2)C1.Cl" What is its recorded Inhibition?
Completion: -7.18

Prompt: Consider the molecule shown here: "N#Cc1ccc(C(c2ccc(C#N)cc2)n2cncn2)cc1" What is its recorded Inhibition?
Completion: -8.63

Prompt: Consider the molecule shown here: COc1ccccc1N1CCN(CCCNc2cc(=O)n(C)c(=O)n2C)CC1.Cl [URAPIDIL HYDROCHLORIDE] What is its recorded Inhibition?
Completion: -6.92

Prompt: Consider the molecule shown here: Cl.Clc1ccccc1CN1CCc2sccc2C1 [TICLOPIDINE HYDROCHLORIDE] What is its recorded Inhibition?
Completion: -6.79

Prompt: Consider the molecule shown here: "Nc1ccn([C@@H]2O[C@H](CO)[C@@H](O)[C@@H]2O)c(=O)n1" What is its recorded Inhibition?
Completion: -8.77

Prompt: Consider the molecule shown here: O=C(NCCN1CCOCC1)c1ccc(Cl)cc1 [MOCLOBEMIDE] What is its recorded Inhibition?
Completion: -2.98

Prompt: Consider the molecule shown here: CN1CCC(=C2c3ccccc3C=Cc3ccccc32)CC1.Cl [CYPROHEPTADINE HYDROCHLORIDE] What is its recorded Inhibition?
Completion: -5.58

Prompt: Consider the molecule shown here: "CC(C)(C(=O)c1cccnc1)c1cccnc1" What is its recorded Inhibition?
Completion: -9.27

Prompt: Consider the molecule shown here: Cc1cccc(C)c1NC(=O)C(C)N (centres undefined) [TOCAINIDE] What is its recorded Inhibition?
Completion: 0.27

Prompt: Consider the molecule shown here: CN(C)CCCN1c2ccccc2CCc2ccccc21.Cl [IMIPRAMINE HYDROCHLORIDE] What is its recorded Inhibition?
Completion: 0.01

Prompt: Consider the molecule shown here: "Cl.O.c1cnc(N2CCN(Cc3ccc4c(c3)OCO4)CC2)nc1" What is its recorded Inhibition?
Completion: -7.46

Prompt: Consider the molecule shown here: CCC(CO)NCCNC(CC)CO (centres undefined) What is its recorded Inhibition?
Completion: -1.69

Prompt: Consider the molecule shown here: CCN1CC(CCN2CCOCC2)C(c2ccccc2)(c2ccccc2)C1=O.Cl (centres undefined) What is its recorded Inhibition?
Completion: -0.87

Prompt: Consider the molecule shown here: Cl.c1ccc(CC2=NCCN2)cc1 [TOLAZOLINE HYDROCHLORIDE] What is its recorded Inhibition?
Completion: -1.43

Prompt: Consider the molecule shown here: CCCC1O[C@@H]2C[C@H]3[C@@H]4CCC5=CC(=O)C=C[C@]5(C)[C@H]4[C@@H](O)C[C@]3(C)[C@]2(C(=O)CO)O1 (some centres undefined) [BUDESONIDE] What is its recorded Inhibition?
Completion: -1.35

Prompt: Consider the molecule shown here: "Cc1cn([C@H]2C=C[C@@H](CO)O2)c(=O)[nH]c1=O" What is its recorded Inhibition?
Completion: 0.51
